Test: Example 7: high single doses in healthy human subjects (PK)
Type: in vivo
Conditions: both sexes, human, plasma; single oral dose 40 mg/kg, fasted
assay endpoint: Tmax (h)
Numbers only here, please. The scale is h.

Query string: What value of measured Tmax is listed for COCCOCCOCCOc1cccc(C2=N[C@@](C)(C(=O)O)CS2)c1O [Compound 1] ?
Result string: 1.38

* * *

Test: Example 5: single-dose study in iron-overloaded human subjects (PK)
Format: in vivo
Conditions: human, plasma; single oral dose 16 mg/kg (1288 mg), subject 3; read-out: tmax
assay endpoint: Tmax (h)
Field format: number, assumed h, no unit text.

Query string: What does the record list as Tmax for `COCCOCCOCCOc1cccc(C2=N[C@@](C)(C(=O)O)CS2)c1O` ?
Result string: 1
